Molecular target: human μ-opiate receptor (Homo sapiens, UniProt P35372)
Sequence (P35372 whole entry): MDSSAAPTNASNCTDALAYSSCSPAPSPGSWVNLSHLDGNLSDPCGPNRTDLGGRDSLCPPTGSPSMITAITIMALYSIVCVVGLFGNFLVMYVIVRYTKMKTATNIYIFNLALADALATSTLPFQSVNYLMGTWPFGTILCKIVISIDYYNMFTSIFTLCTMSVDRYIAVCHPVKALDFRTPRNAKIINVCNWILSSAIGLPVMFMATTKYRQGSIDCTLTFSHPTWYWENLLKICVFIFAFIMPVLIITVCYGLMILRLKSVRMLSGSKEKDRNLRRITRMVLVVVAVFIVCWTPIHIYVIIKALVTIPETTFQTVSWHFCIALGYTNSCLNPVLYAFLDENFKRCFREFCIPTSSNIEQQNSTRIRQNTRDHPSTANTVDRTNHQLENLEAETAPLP
Assay: Affinity for the human μ-opiate receptor ([3H]-naloxone displacement, SPA, CHO-K1 membrane preparation)
Type: binding
Details: read-out: μ-Opioid receptor, % inhibition [1 μM]
Where a name gives a salt, the structure may show the parent alone.
readout.name: inhibition at 1 µM (%)
# value in %; strip the unit string

- compound: "Cc1cc(C(=O)NC2CCC(C(c3ccccc3)N(C)C)CC2)c(C)o1 (centres unmarked)"
  endpoint.result: 74
- compound: "COc1c(C(=O)NCC2CCC(C(c3ccccc3)N(C)C)CC2)csc1Cl (centres unmarked)"
  endpoint.result: 102
- compound: "CC(=O)N(c1ccccc1)C1CCC(C(c2ccccc2)N(C)C)CC1 (centres unmarked) [compound 96, hydrochloride]"
  endpoint.result: 99
- compound: "Cc1cccc(C(=O)NCC2CCC(C(c3ccccc3)N(C)C)CC2)c1 (centres unmarked)"
  endpoint.result: 85
- compound: "CN(C)C(c1ccccc1)C1CCC(NC(=O)c2cccc(C(F)(F)F)c2)CC1 (centres unmarked)"
  endpoint.result: 94

Item CN(C)C(c1ccccc1)C1CCC(CCNC(=O)C(c2ccccc2)c2ccccc2)CC1 (centres unmarked) has what recorded inhibition at 1 µM?
95

Suppose we examine the compound CC(Oc1ccccc1)C(=O)NCC1CCC(C(c2cccc(F)c2)N(C)C)CC1 (single isomer, unassigned) [compound 332] ; what inhibition at 1 µM value has been reported?
93

Quick one: inhibition at 1 µM for CC(=O)N(CCCCc1ccccc1)C1CCC(C(c2ccccc2)N(C)C)CC1 (centres unmarked) [compound 98, hydrochloride] ?
104

###

Biological target: human μ-opiate receptor (Homo sapiens)
Experiment: Affinity for the human μ-opiate receptor ([3H]-naloxone displacement, SPA, CHO-K1 membrane preparation)
Assay type: binding
Conditions: read-out: μ-Opioid receptor, % inhibition [1 μM]
Please enter Satisfied where inhibition at 1 µM is greater than or equal to 80%, and Not satisfied where it is lower.

Please review the following examples before continuing.
- molecule: "COc1cc(C(=O)NC2CCC(C(c3cccs3)N(C)C)CC2)cc(OC)c1OC (stereo not drawn)"
  class.label: "Satisfied"
- molecule: "CN(C)C(c1ccc(F)cc1)C1CCC(NC(=O)c2ccc(Cl)c(Cl)c2)CC1 (stereo not drawn)"
  class.label: "Not satisfied"
- molecule: "CN(C)C(c1ccc(F)cc1)C1CCC(NC(=O)c2cc(F)c(F)cc2F)CC1 (stereo not drawn)"
  class.label: "Not satisfied"

Does the reported inhibition at 1 µM for COc1ccccc1C(=O)NCCC1CCC(C(c2ccccc2)N(C)C)CC1 (stereo not drawn) fall at or above the 80% mark?
Satisfied

###

Target: UniProt:P35372
Experiment: Affinity for the human μ-opiate receptor ([3H]-naloxone displacement, SPA, CHO-K1 membrane preparation)
Assay type: binding
Settings: read-out: μ-Opioid receptor, Ki
molecules and their reported Ki
Dear colleague, please return just the value in nM, with no unit written.

Sample records with Ki:
- molecule: "CN(C)C(c1ccccc1)C1CCC(NC(=O)CC(C)(C)C)CC1 (single isomer, unassigned) [compound 228]"
  Ki [nM]: 19
- molecule: "CN(C)C(c1cccs1)C1CCC(NC(=O)c2cccs2)CC1 (stereo not shown)"
  Ki [nM]: 23
- molecule: "CN(C)C(c1ccccc1)C1CCC(CNC(=O)Cc2ccccc2)CC1 (stereo not shown)"
  Ki [nM]: 9.9
- molecule: "CN(C)C(c1cccc(F)c1)C1CCC(CNC(=O)Cc2ccccc2)CC1 (single isomer, unassigned) [compound 348]"
  Ki [nM]: 30
- molecule: "CN(C)C(c1ccc(F)cc1)C1CCC(CCNC(=O)c2ccc3ccccc3c2)CC1 (stereo not shown)"
  Ki [nM]: 110

Please find the next molecule below.
Please give the measured Ki for this molecule: CN(C)C(c1ccccc1)C1CCC(CN)CC1 (stereo not shown)
210

###

Molecular target: human μ-opiate receptor (Homo sapiens)
Assay: Affinity for the human μ-opiate receptor ([3H]-naloxone displacement, SPA, CHO-K1 membrane preparation)
Format: binding
Settings: read-out: μ-Opioid receptor, Ki
readout.name: pKi
Please report pKi as the negative decimal logarithm of the molar concentration, giving only the number.

A selection of reference data follows.
- compound: "CN(C)C(c1ccc(F)cc1)C1CCC(CNC(=O)C2(c3ccc(Cl)cc3)CCCC2)CC1 (centres unmarked) [compound 370]"
  pKi: 7.09
- compound: "CN(C)C(c1ccccc1)C1CCC(CNC(=O)c2csc3ccccc23)CC1 (centres unmarked) [compound 292]"
  pKi: 8.89
- compound: "CN(C)C(c1ccccc1)C1CCC(NC(=O)c2cc(F)ccc2C(F)(F)F)CC1 (centres unmarked) [compound 281]"
  pKi: 7.34
- compound: "COc1c(C(=O)NCCC2CCC(C(c3ccccc3)N(C)C)CC2)csc1Cl (centres unmarked) [compound 474]"
  pKi: 8.57
- compound: "CN(C)C(c1ccc(Cl)cc1)C1CCC(CCNC(=O)c2cccc(Cl)c2)CC1 (centres unmarked) [compound 399]"
  pKi: 6.96
- compound: "CCCC(=O)N(CCc1c[nH]c2ccccc12)C1CCC(C(c2ccccc2)N(C)C)CC1 (centres unmarked) [compound 181]"
  pKi: 8.41
- compound: "CN(C)C(c1cccs1)C1CCC(NC(=O)c2cccc(C#N)c2)CC1 (centres unmarked) [compound 186]"
  pKi: 7.74

Value lookup for pKi; key = CN(C)C(c1ccccc1)C1CCC(NC(=O)c2ccc(C(C)(C)C)cc2)CC1 (centres unmarked) [compound 217]
7.21

###

Target: human μ-opiate receptor (Homo sapiens)
Experiment: Affinity for the human μ-opiate receptor ([3H]-naloxone displacement, SPA, CHO-K1 membrane preparation)
Type: binding
Details: read-out: μ-Opioid receptor, % inhibition [1 μM]
Structures can show the parent of a compound that is named as a salt.
Would you please tag the item MET when its inhibition at 1 µM is 90% or above, and NOT MET when it is below?

Solved cases (3 shown):
- molecule: "CN(C)C(c1ccccc1)C1CCC(CNC(=O)c2cccc(Cl)c2)CC1 (stereo not shown)"
  measurement.target: "human μ-opiate receptor (Homo sapiens)"
  class.label: "MET"
- molecule: "CCCC(=O)N(Cc1ccccc1)C1CCC(C(c2ccccc2)N(C)C)CC1 (stereo not shown) [compound 102, hydrochloride]"
  measurement.target: "human μ-opiate receptor (Homo sapiens)"
  class.label: "MET"
- molecule: "CN(C)C(c1ccccc1)C1CCC(NC(=O)c2cc(F)cc(C(F)(F)F)c2)CC1 (stereo not shown)"
  measurement.target: "human μ-opiate receptor (Homo sapiens)"
  class.label: "MET"

Please tell me: is the molecule CN(C)C(c1cccs1)C1CCC(NC(=O)c2cccs2)CC1 (stereo not shown) at or over 90% in terms of inhibition at 1 µM?
MET

Hi team, for CN(C)C(c1ccccc1)C1CCC(NC(=O)Cc2cccs2)CC1 (stereo not shown) , is the recorded inhibition at 1 µM at or above 90%?
NOT MET

Record CN(C)C(c1ccc(Cl)cc1)C1CCC(CNC(=O)c2ccccc2Cl)CC1 (stereo not shown) ; criterion: inhibition at 1 µM no lower than 90%. Met?
NOT MET

###

Target: Noradrenaline (NA) reuptake (Rattus norvegicus, UniProt Q63380)
Construct: synaptosomes are freshly isolated from areas of rat brain; from tissue; host or cells: rat hypothalamus synaptosomes (P2 fraction)
Sequence (Q63380 1-617): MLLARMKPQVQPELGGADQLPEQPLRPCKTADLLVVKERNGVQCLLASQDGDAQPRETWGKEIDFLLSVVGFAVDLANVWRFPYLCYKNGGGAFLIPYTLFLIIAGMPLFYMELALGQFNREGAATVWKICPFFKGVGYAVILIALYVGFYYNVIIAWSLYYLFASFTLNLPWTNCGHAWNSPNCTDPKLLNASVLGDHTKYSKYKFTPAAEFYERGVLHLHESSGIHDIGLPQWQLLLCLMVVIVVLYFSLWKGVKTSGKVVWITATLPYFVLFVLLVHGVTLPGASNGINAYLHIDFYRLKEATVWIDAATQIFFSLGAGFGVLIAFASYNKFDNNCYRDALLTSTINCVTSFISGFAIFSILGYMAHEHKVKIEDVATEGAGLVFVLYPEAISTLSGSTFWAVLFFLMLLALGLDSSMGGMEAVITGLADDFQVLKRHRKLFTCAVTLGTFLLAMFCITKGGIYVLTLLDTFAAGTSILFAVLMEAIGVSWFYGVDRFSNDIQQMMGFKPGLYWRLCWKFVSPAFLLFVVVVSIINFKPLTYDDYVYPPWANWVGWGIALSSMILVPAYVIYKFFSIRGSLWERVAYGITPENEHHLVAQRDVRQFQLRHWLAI
Test: Noradrenaline (NA) reuptake inhibition in rat brain synaptosomes (hypothalamus, P2 fraction)
Assay type: biochemical
Conditions: read-out: NA reuptake, % inhibition [10 μM]
Structures can show the parent of a compound that is named as a salt.
inhibition at 10 µM below 80% gives Not fulfilled; inhibition at 10 µM at or above it gives Fulfilled.

- compound: "CN(C)C(c1ccc(F)cc1)C1CCC(CC=O)CC1 (stereo not drawn)"
  measurement.target: "Noradrenaline (NA) reuptake (Rattus norvegicus, UniProt Q63380)"
  class.label: "Fulfilled"
- compound: "CN(C)C(c1ccccc1)C1CCC(CCO)CC1 (stereo not drawn)"
  measurement.target: "Noradrenaline (NA) reuptake (Rattus norvegicus, UniProt Q63380)"
  class.label: "Fulfilled"

Does inhibition at 10 µM meet or surpass 80% for CN(C)C(c1ccccc1)C1CCC(NS(=O)(=O)c2ccccc2[N+](=O)[O-])CC1 (stereo not drawn) [compound 109, hydrochloride] ?
Not fulfilled

###

Measured inhibition at 10 µM of individual entries
Biological target: Noradrenaline (NA) reuptake (Rattus norvegicus)
Construct: synaptosomes are freshly isolated from areas of rat brain; from tissue; host or cells: rat hypothalamus synaptosomes (P2 fraction)
Assay: Noradrenaline (NA) reuptake inhibition in rat brain synaptosomes (hypothalamus, P2 fraction)
Type: biochemical
Details: read-out: Na reuptake, % inhibition [10 μM]
Text: Noradrenaline (NA) and Serotonin (5HT) Reuptake Inhibition In order to be able to carry out these studies in vitro, synaptosomes are freshly isolated from areas of rat brain. A so-called “P2” fraction prepared by the method of Gray and Whittaker (E. G. Gray and V. P. Whittaker (1962) J. Anat. 76, 79-88) is used in each case. For the NA uptake, these vesicular particles are isolated from the hypothalamus of male rat brains. […]
Where a name gives a salt, the structure may show the parent alone.
Please state the figure in %; there is no need to write the unit.

Solved cases (3 shown):
- compound: "CC(=O)N(CCCc1ccccc1)C1CCC(C(c2ccccc2)N(C)C)CC1 (centres unmarked) [compound 95, hydrochloride]"
  inhibition at 10 µM / %: 80
- compound: "CC(=O)N(c1ccccc1)C1CCC(C(c2ccccc2)N(C)C)CC1 (centres unmarked) [compound 96, hydrochloride]"
  inhibition at 10 µM / %: 88
- compound: "COc1ccc(N(C(C)=O)C2CCC(C(c3ccccc3)N(C)C)CC2)cc1 (centres unmarked) [compound 99, hydrochloride]"
  inhibition at 10 µM / %: 75

Form: Entry = CCCC(=O)N(Cc1ccccc1)C1CCC(C(c2ccccc2)N(C)C)CC1 (centres unmarked) [compound 102, hydrochloride] | System = Noradrenaline (NA) reuptake (Rattus norvegicus) | inhibition at 10 µM = ____
92

Short answer please: inhibition at 10 µM, Noradrenaline (NA) reuptake (Rattus norvegicus), entry CC(=O)N(Cc1ccccc1)C1CCC(C(c2ccccc2)N(C)C)CC1 (centres unmarked) [compound 100, hydrochloride]
91
